# tested_target: T1, human TREM2 (human, UniProt Q9NZC2 19-174, limits assumed)
# T1 construct: also called triggering receptor expressed on myeloid cells 2
# T1 sequence: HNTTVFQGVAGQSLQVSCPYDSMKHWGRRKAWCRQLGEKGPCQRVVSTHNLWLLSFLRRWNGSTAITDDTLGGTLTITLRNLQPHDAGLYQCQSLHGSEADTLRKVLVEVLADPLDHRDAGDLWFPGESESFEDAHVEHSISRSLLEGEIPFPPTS
# assay_remarks: 2nd screen 100 nM
result_type: Binding Signal (fold over 6E7 Parental antibody) (fold)

[
  {
    "binder": "V58 (antibody, V domains shown) VH: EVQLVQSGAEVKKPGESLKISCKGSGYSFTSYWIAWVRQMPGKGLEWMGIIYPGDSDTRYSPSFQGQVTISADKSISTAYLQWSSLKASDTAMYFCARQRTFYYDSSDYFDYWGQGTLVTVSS VL: DIQMTQSPSSVSASVGDRVTITCRASQGISSWLAWYQQKPGKAPKLLIYKASSLQNGVPSRFSGSGSGTDFTLTISSLQPEDFATYFCQQADSFPRTFGQGTKLEIK",
    "value_units": "fold",
    "measured_number": 0.68
  }
]
